System: atopic dermatitis-induced Nc/Nga mouse
Experiment: SCORAD clinical skin score, DNFB-induced atopic dermatitis in Nc/Nga mouse
Format: in vivo
Design: key: 0 = no symptom, 1 = mild, 2 = moderate, 3 = severe
Details: Mouse 1; DNFB Nc/Nga; 0.1% topical day 15-21; graded per Example 4

| smiles_record | study_target | Mouse 1 Eschar |
| --- | --- | --- |
| CCCC(=O)N[C@@H](Cc1c[nH]c2ccccc12)C(=O)O | atopic dermatitis-induced Nc/Nga mouse | 2 |
| CCCCC(=O)N[C@@H](Cc1c[nH]c2ccccc12)C(=O)O | atopic dermatitis-induced Nc/Nga mouse | 2 |
| CCCCCCCCCCCCCCCCCC(=O)N[C@@H](Cc1c[nH]c2ccccc12)C(=O)O | atopic dermatitis-induced Nc/Nga mouse | 2 |
| CCCCCCCC/C=C\CCCCCCCC(=O)N[C@@H](Cc1c[nH]c2ccccc12)C(=O)O | atopic dermatitis-induced Nc/Nga mouse | 2 |
| CCCCCCCCCCCCCCCC(=O)N[C@@H](C)C(=O)O | atopic dermatitis-induced Nc/Nga mouse | 1 |
| CCCCCCCCCCCCCCCC(=O)N[C@@H](Cc1c[nH]c2ccccc12)C(=O)O | atopic dermatitis-induced Nc/Nga mouse | 1 |
| CC(=O)N[C@@H](CCC(=O)N[C@@H](C)C(=O)O)C(=O)O | atopic dermatitis-induced Nc/Nga mouse | 0 |

----------
System: atopic dermatitis-induced Balb/c mouse
Assay: SCORAD clinical skin score, DNFB-induced atopic dermatitis in Balb/c mouse
Assay type: in vivo
Design: key: sum of symptom grades, each 0 (none) to 3 (severe)
Settings: Mouse 3; DNFB Balb/c; 0.1% topical day 22-28; overall dermatitis score, sum of individual scores

| smiles_record | Mouse 3 Sum |
| --- | --- |
| CC(=O)N[C@@H](Cc1c[nH]c2ccccc12)C(=O)O | 4 |
| CC(=O)N[C@H](C(=O)O)C(C)C | 12 |
| CSCC[C@H](NC(C)=O)C(=O)O | 14 |
| CC(=O)N[C@@H](CCCCN)C(=O)O | 14 |
| CC(=O)N1CCC[C@H]1C(=O)O | 13 |

----------
Tested on: atopic dermatitis-induced Nc/Nga mouse
Assay: SCORAD clinical skin score, DNFB-induced atopic dermatitis in Nc/Nga mouse
Assay type: in vivo
Parameters: key: 0 = no symptom, 1 = mild, 2 = moderate, 3 = severe
Conditions: Mouse 3; DNFB Nc/Nga; 0.1% topical day 15-21; graded per Example 4
recorded_endpoint: Mouse 3 Erythema

| compound | recorded_endpoint | result |
| --- | --- | --- |
| CCCCCCCCCCC(=O)N[C@@H](Cc1c[nH]c2ccccc12)C(=O)O [N-undecanoyl L-tryptophan, N-undecanoyl-L-tryptophan] | Mouse 3 Erythema | 1 |
| CCCCC(=O)N[C@@H](Cc1c[nH]c2ccccc12)C(=O)O [N-pentanoyl L-tryptophan, N-pentanoyl-L-tryptophan] | Mouse 3 Erythema | 2 |
| CCCCCCCCCCCCCCCC(=O)N[C@@H](C)C(=O)O [N-palmitoyl L-alanine, N-palmitoyl-L-alanine] | Mouse 3 Erythema | 2 |
| CCCC(=O)N[C@@H](Cc1c[nH]c2ccccc12)C(=O)O [N-butyryl L-tryptophan, N-butyryl-L-tryptophan] | Mouse 3 Erythema | 1 |
| CC(=O)N[C@@H](CCC(=O)N[C@@H](C)C(=O)O)C(=O)O [N-acetyly-glutammyl-L-alanine, N-acetyl-γ-glutammyl-L-alanine] | Mouse 3 Erythema | 1 |
| CCCCCCCC/C=C\CCCCCCCC(=O)N[C@@H](Cc1c[nH]c2ccccc12)C(=O)O [N-oleoyl-L-tryptophan] | Mouse 3 Erythema | 2 |
| CCCCCCCC/C=C\CCCCCCCCCCCC(=O)N[C@@H](Cc1c[nH]c2ccccc12)C(=O)O [N-(Z)-docos-13-enoyl L-tryptophan, N—(Z)-docos-13-enoyl-L-tryptophan] | Mouse 3 Erythema | 2 |

----------
Tested on: atopic dermatitis-induced Nc/Nga mouse
Test: SCORAD clinical skin score, DNFB-induced atopic dermatitis in Nc/Nga mouse
Assay type: in vivo
Design: key: sum of individual symptom scores, each graded 0-3
Details: mean of 3 mice; DNFB Nc/Nga; 0.1% topical day 15-21
recorded_endpoint: Mean (of Sum, SCORAD)

| smiles_record | result |
| --- | --- |
| CCCCCCCCCCCCCCCC(=O)N[C@@H](C)C(=O)O | 6.7 |
| CCCCC(=O)N[C@@H](Cc1c[nH]c2ccccc12)C(=O)O | 10.3 |
| CCCCCCCC/C=C\CCCCCCCC(=O)N[C@@H](Cc1c[nH]c2ccccc12)C(=O)O | 10.7 |
| CCCC(=O)N[C@@H](Cc1c[nH]c2ccccc12)C(=O)O | 8.7 |

----------
Test system: atopic dermatitis-induced Balb/c mouse
Experiment: SCORAD clinical skin score, DNFB-induced atopic dermatitis in Balb/c mouse
Format: in vivo
Parameters: key: sum of symptom grades, each 0 (none) to 3 (severe)
Settings: Mouse 3; DNFB Balb/c; 0.1% topical day 22-28; overall dermatitis score, sum of individual scores
// reported Mouse 3 Sum per item

| molecule | Mouse 3 Sum |
| --- | --- |
| CC(=O)N[C@@H](CC(C)C)C(=O)O [N-acetyl-L-leucine] | 13 |
| CC(=O)N[C@@H](CCC(N)=O)C(=O)O [N-acetyl-L-glutamine] | 11 |
| CC(=O)N[C@@H](CC(N)=O)C(=O)O [N-acetyl-L-asparagine] | 16 |
| CC(=O)NCC(=O)O [N-acetyl-L-glycine] | 15 |
| CC(=O)N[C@@H](CCCNC(=N)N)C(=O)O [N-acetyl-L-arginine] | 5 |
| CC(=O)N[C@@H](CCC(=O)O)C(=O)O [N-acetyl-L-glutamic acid] | 12 |
| CC(=O)N[C@@H](Cc1c[nH]cn1)C(=O)O [N-acetyl-L-histidine] | 14 |
| CC[C@H](C)[C@H](NC(C)=O)C(=O)O [N-acetyl-L-isoleucine] | 14 |
| CC(=O)N[C@@H](Cc1ccc(O)cc1)C(=O)O [N-acetyl-L-tyrosme] | 13 |
| CC(=O)N[C@@H](CO)C(=O)O [N-acetyl-L-serine] | 14 |

----------
Measured Mouse 3 Sum accompanies every entry in the list below.
Tested on: atopic dermatitis-induced Balb/c mouse
Assay: SCORAD clinical skin score, DNFB-induced atopic dermatitis in Balb/c mouse
Format: in vivo
Design: key: sum of symptom grades, each 0 (none) to 3 (severe)
Settings: Mouse 3; DNFB Balb/c; 0.1% topical day 22-28; overall dermatitis score, sum of individual scores

| compound | Mouse 3 Sum |
| --- | --- |
| CC(=O)N[C@H](C(=O)O)[C@@H](C)O | 6 |
| CC(=O)N[C@@H](C)C(=O)O | 5 |
| CC(=O)N[C@@H](CC(=O)O)C(=O)O | 12 |
| CC(=O)N[C@@H](CS)C(=O)O [N-acetyl-L-cysteine, reference compound] | 11 |
| CC(=O)N[C@@H](Cc1ccccc1)C(=O)O | 14 |

----------
// reported Mouse 2 Erythema for each item listed
System: atopic dermatitis-induced Nc/Nga mouse
Assay: SCORAD clinical skin score, DNFB-induced atopic dermatitis in Nc/Nga mouse
Type: in vivo
Parameters: key: 0 = no symptom, 1 = mild, 2 = moderate, 3 = severe
Conditions: Mouse 2; DNFB Nc/Nga; 0.1% topical day 15-21; graded per Example 4
recorded_endpoint: Mouse 2 Erythema

| compound | recorded_endpoint | result |
| --- | --- | --- |
| CC(=O)N[C@@H](CCC(=O)N[C@@H](C)C(=O)O)C(=O)O [N-acetyly-glutammyl-L-alanine, N-acetyl-γ-glutammyl-L-alanine] | Mouse 2 Erythema | 1 |
| CCCC(=O)N[C@@H](Cc1c[nH]c2ccccc12)C(=O)O [N-butyryl L-tryptophan, N-butyryl-L-tryptophan] | Mouse 2 Erythema | 2 |
| CCCCCCCC/C=C\CCCCCCCCCCCC(=O)N[C@@H](Cc1c[nH]c2ccccc12)C(=O)O [N-(Z)-docos-13-enoyl L-tryptophan, N—(Z)-docos-13-enoyl-L-tryptophan] | Mouse 2 Erythema | 1 |

----------
System: interferon γ
Assay: Interferon γ mRNA in skin tissue by quantitative real-time PCR, Balb/c
Type: in vivo, mouse
Settings: atopy-induced Balb/c mice, normalized to β-actin
recorded_endpoint: level of interferon γ in the skin tissue (FIG. 5A)

| molecule | result |
| --- | --- |
| CC(=O)N[C@@H](CCCNC(=N)N)C(=O)O [N-acetyl-L-arginine] | significantly decreased |
| CC(=O)N[C@@H](C)C(=O)O [N-acetyl-L-alanine] | significantly decreased |
| CC(=O)N[C@H](C(=O)O)[C@@H](C)O [N-acetyl-L-threonine] | significantly decreased |
| CC(=O)N[C@@H](Cc1c[nH]c2ccccc12)C(=O)O [N-acetyl-L-tryptophan] | significantly decreased |
| CC(=O)N[C@@H](CS)C(=O)O [N-acetyl-L-cysteine, reference compound] | significantly decreased |

----------
Test system: atopic dermatitis-induced Balb/c mouse
Assay: SCORAD clinical skin score, DNFB-induced atopic dermatitis in Balb/c mouse
Assay type: in vivo
Settings: Mouse 1; DNFB Balb/c; 0.1% topical day 22-28; grade 0-3
Method: In order to induce atopy-like dermatitis in Balb/c mice, DNFB sensitization was induced by applying 100 μL of 0.35% 2,4-dinitrofluorobenzene (DNFB) (Sigma, USA) in acetone/olive oil (3:1) on the shaved back skin of the mice. […] The degree of skin soothing and the severity of atopic dermatitis were evaluated macroscopically according to the previously established SCORAD (SCORing Atopic Dermatitis) method (Oranje et al., 2007). […]
Mouse 1 Abrasion for assorted compounds

| compound | study_target | Mouse 1 Abrasion |
| --- | --- | --- |
| CC(=O)NCC(=O)O [N-acetyl-L-glycine] | atopic dermatitis-induced Balb/c mouse | 2 |
| CC(=O)N[C@H](C(=O)O)[C@@H](C)O [N-acetyl-L-threonine] | atopic dermatitis-induced Balb/c mouse | 1 |
| CC(=O)N[C@@H](CS)C(=O)O [N-acetyl-L-cysteine, reference compound] | atopic dermatitis-induced Balb/c mouse | 2 |
| CC(=O)N[C@@H](CCC(N)=O)C(=O)O [N-acetyl-L-glutamine] | atopic dermatitis-induced Balb/c mouse | 2 |
| CC(=O)N[C@@H](CC(=O)O)C(=O)O [N-acetyl-L-aspartic acid] | atopic dermatitis-induced Balb/c mouse | 2 |
| CC(=O)N[C@@H](Cc1c[nH]cn1)C(=O)O [N-acetyl-L-histidine] | atopic dermatitis-induced Balb/c mouse | 2 |
| CC(=O)N1CCC[C@H]1C(=O)O [N-acetyl-L-proline] | atopic dermatitis-induced Balb/c mouse | 2 |
| CC(=O)N[C@@H](CC(C)C)C(=O)O [N-acetyl-L-leucine] | atopic dermatitis-induced Balb/c mouse | 2 |
| CC(=O)N[C@@H](Cc1ccccc1)C(=O)O [N-acetyl-L-phenylalanme] | atopic dermatitis-induced Balb/c mouse | 2 |
| CC(=O)N[C@@H](Cc1ccc(O)cc1)C(=O)O [N-acetyl-L-tyrosme] | atopic dermatitis-induced Balb/c mouse | 2 |
| CC(=O)N[C@@H](CCCCN)C(=O)O [N-acetyl-L-Lysine] | atopic dermatitis-induced Balb/c mouse | 2 |
| CC(=O)N[C@@H](C)C(=O)O [N-acetyl-L-alanine] | atopic dermatitis-induced Balb/c mouse | 1 |
| CC(=O)N[C@@H](CO)C(=O)O [N-acetyl-L-serine] | atopic dermatitis-induced Balb/c mouse | 2 |
| CC(=O)N[C@@H](CCC(=O)O)C(=O)O [N-acetyl-L-glutamic acid] | atopic dermatitis-induced Balb/c mouse | 2 |
| CSCC[C@H](NC(C)=O)C(=O)O [N-acetyl-L-methionine] | atopic dermatitis-induced Balb/c mouse | 2 |
| CC[C@H](C)[C@H](NC(C)=O)C(=O)O [N-acetyl-L-isoleucine] | atopic dermatitis-induced Balb/c mouse | 1 |
| CC(=O)N[C@@H](CC(N)=O)C(=O)O [N-acetyl-L-asparagine] | atopic dermatitis-induced Balb/c mouse | 3 |
| CC(=O)N[C@H](C(=O)O)C(C)C [N-acetyl-L-valine] | atopic dermatitis-induced Balb/c mouse | 2 |
| CC(=O)N[C@@H](CCCNC(=N)N)C(=O)O [N-acetyl-L-arginine] | atopic dermatitis-induced Balb/c mouse | 1 |
| CC(=O)N[C@@H](Cc1c[nH]c2ccccc12)C(=O)O [N-acetyl-L-tryptophan] | atopic dermatitis-induced Balb/c mouse | 1 |
